systemName: UniProt P13661
experimentalConditions: read-out: IC50 β-lactamase OXA-1; class (D); nitrocefin 200 μM, 30-min pre-incubation, enzyme 0.2 nM
I'd be grateful if you could share measured IC50 for these entries.
Answers are plain numbers, in nM.

Cc1cc(C(N)=O)nn1C1=CC2CN(C1)C(=O)N2OS(=O)(=O)[O-].[Na+] (centres unmarked)	1500
O=C([O-])Cc1cn(C2=CC3CN(C2)C(=O)N3OS(=O)(=O)[O-])nn1.[Na+].[Na+] (centres unmarked)	110
N#Cc1ccn(C2=CC3CN(C2)C(=O)N3OS(=O)(=O)[O-])n1.[Na+] (centres unmarked)	100
NC(=O)c1nn(C2=CC3CN(C2)C(=O)N3OS(=O)(=O)[O-])cc1F.[Na+] (centres unmarked)	33

Okay, here is my list. What is IC50 for each of these?
1. NCc1cn(C2=CC3CN(C2)C(=O)N3OS(=O)(=O)[O-])nn1.O=C(O)C(F)(F)F.[Na+] (centres unmarked)
2. CC(=O)Nc1cnn(C2=CC3CN(C2)C(=O)N3OS(=O)(=O)[O-])c1.[Na+] (centres unmarked)
3. O=C1N2CC(n3cc(N4CCOCC4)cn3)=CC(C2)N1OS(=O)(=O)[O-].[Na+] (centres unmarked)
4. NCCONC(=O)c1cnn(C2=CC3CN(C2)C(=O)N3OS(=O)(=O)[O-])c1.O=C(O)C(F)(F)F.[Na+] (centres unmarked)

### Response
1: 66; 2: 2100; 3: 6200; 4: 76

---

systemName: KPC-2 (Klebsiella pneumoniae, UniProt Q9F663)
parameterMeasured: pIC50
Give bare numbers, as −log10 of the molar value.

Use the examples below as a reference point.
O=C1N2CC(n3cc(CO)cn3)=CC(C2)N1OS(=O)(=O)[O-].[Na+] (centres unmarked) [Example 71]	7.38
O=C1N2CC(n3ccc(CO)n3)=CC(C2)N1OS(=O)(=O)O (centres unmarked) [Example 12]	7.59
NCCc1cnn(C2=CC3CN(C2)C(=O)N3OS(=O)(=O)O)c1 (centres unmarked) [Example 41]	7.24
CC(=O)c1cnn(C2=CC3CN(C2)C(=O)N3OS(=O)(=O)[O-])c1.[Na+] (centres unmarked) [Example 40]	8.47
O=C(Nc1ccn(C2=CC3CN(C2)C(=O)N3OS(=O)(=O)[O-])n1)c1nccs1.[Na+] (centres unmarked) [Example 34]	8.07

Please state pIC50 for every compound in the list that follows.
1. O=C1N2CC(n3cc(N4CCNCC4)cn3)=CC(C2)N1OS(=O)(=O)O (centres unmarked) [Example 42]
2. [2H]c1nn(C2=CC3CN(C2)C(=O)N3OS(=O)(=O)[O-])c([2H])c1[2H].[Na+] (centres unmarked) [Example 43]
3. O=C(Nc1nccs1)c1ccn(C2=CC3CN(C2)C(=O)N3OS(=O)(=O)[O-])n1.[Na+] (centres unmarked) [Example 25]

### Response
1: 7.12; 2: 7.54; 3: 8.60

---

Test system: K. pneumoniae 6299
assayMethodText: MIC of compound alone, broth microdilution
Format: cell-based
experimentalConditions: Klebsiella pneumoniae; strain 6299; compound alone; read-out: MIC compounds of the invention alone
Please go through the items and note down their MIC.

Solved cases (5 shown):
CNCc1cn(C2=CC3CN(C2)C(=O)N3OS(=O)(=O)O)nn1 (stereo not drawn) [Example 60]	> 32 µg/mL
O=C(NC1CCNCC1)c1ccn(C2=CC3CN(C2)C(=O)N3OS(=O)(=O)O)n1 (stereo not drawn) [Example 32]	32 µg/mL
NC(=O)CONC(=O)c1ccn(C2=CC3CN(C2)C(=O)N3OS(=O)(=O)[O-])n1.[Na+] (stereo not drawn) [Example 52]	16 µg/mL
O=C(Nc1ncco1)c1ccn(C2=CC3CN(C2)C(=O)N3OS(=O)(=O)[O-])n1.[Na+] (stereo not drawn) [Example 37]	> 32 µg/mL
NCCNC(=O)c1cnn(C2=CC3CN(C2)C(=O)N3OS(=O)(=O)O)c1 (stereo not drawn) [Example 38]	> 32 µg/mL

Could you report MIC for every entry in the following list?
1. O=C(Nc1nncs1)c1ccn(C2=CC3CN(C2)C(=O)N3OS(=O)(=O)[O-])n1.[Na+] (stereo not drawn) [Example 84]
2. NCCc1cnn(C2=CC3CN(C2)C(=O)N3OS(=O)(=O)O)c1 (stereo not drawn) [Example 41]
3. NC(=O)c1cnn(C2=CC3CN(C2)C(=O)N3OS(=O)(=O)[O-])c1.[Na+] (stereo not drawn) [Example 7]
4. COc1cnn(C2=CC3CN(C2)C(=O)N3OS(=O)(=O)[O-])c1.[Na+] (stereo not drawn) [Example 9]

### Response
> 32 µg/mL
> 32 µg/mL
> 32 µg/mL
> 32 µg/mL

---

systemName: KPC-2 (Klebsiella pneumoniae, UniProt Q9F663)
experimentalConditions: read-out: IC50 β-lactamase KPC-2; class (A); nitrocefin 200 μM, 30-min pre-incubation, enzyme 1 nM
pIC50: −log10 of the molar value.
Assign class by pIC50: not lower than 8 means MET; lower than 8 means NOT MET.

Cc1cc(C(N)=O)nn1C1=CC2CN(C1)C(=O)N2OS(=O)(=O)[O-].[Na+] (centres unmarked)	MET
CN(C)C.NC(=O)CCc1nccn1C1=CC2CN(C1)C(=O)N2OS(=O)(=O)O (centres unmarked)	NOT MET
NC(=O)c1cc(F)n(C2=CC3CN(C2)C(=O)N3OS(=O)(=O)[O-])n1.[Na+] (centres unmarked)	MET
C/C(=N/O)c1cnn(C2=CC3CN(C2)C(=O)N3OS(=O)(=O)[O-])c1.[Na+] (centres unmarked)	MET

Field: next compound
### Prompt Hello, I need to know if NC(=O)c1nn(C2=CC3CN(C2)C(=O)N3OS(=O)(=O)[O-])cc1F.[Na+] (centres unmarked) has measured pIC50 not below 8. Thanks!
### Response MET

---

systemName: UniProt P05364
experimentalConditions: read-out: IC50 β-lactamase AmpC (P99); class (C); nitrocefin 200 μM, 30-min pre-incubation, enzyme 0.2 nM
parameterMeasured: log10 of IC50 (log10 of the value in nM)
Log10 applied to IC50; unit prior to transform: nM.

Examples from the recorded data:
C/C(=N/O)c1cnn(C2=CC3CN(C2)C(=O)N3OS(=O)(=O)[O-])c1.[Na+] (stereo not shown)	0.98
Cc1cc(C(N)=O)nn1C1=CC2CN(C1)C(=O)N2OS(=O)(=O)[O-].[Na+] (stereo not shown)	1.58
O=C([O-])CCc1cn(C2=CC3CN(C2)C(=O)N3OS(=O)(=O)[O-])nn1.[Na+].[Na+] (stereo not shown)	1.04
NC(=O)c1nn(C2=CC3CN(C2)C(=O)N3OS(=O)(=O)[O-])cc1F.[Na+] (stereo not shown)	1.15
NC(=O)c1cn(C2=CC3CN(C2)C(=O)N3OS(=O)(=O)[O-])nn1.[Na+] (stereo not shown)	1.08

Can you give me log10 of IC50 for all of these, one by one?
1. CC(=O)Nc1ccn(C2=CC3CN(C2)C(=O)N3OS(=O)(=O)O)n1.CCN(CC)CC (stereo not shown)
2. O=C1N2CC(n3cc(-c4nccs4)nn3)=CC(C2)N1OS(=O)(=O)[O-].[Na+] (stereo not shown)
3. O=C1N2CC(n3cc(N4CCOCC4)cn3)=CC(C2)N1OS(=O)(=O)[O-].[Na+] (stereo not shown)
4. NC(=O)c1cc(F)n(C2=CC3CN(C2)C(=O)N3OS(=O)(=O)[O-])n1.[Na+] (stereo not shown)

### Response
1. 0.85
2. 0.80
3. 2.36
4. 1.45

Fill in log10 of IC50 for each of the 7 compounds listed.
1. NCc1ccn(C2=CC3CN(C2)C(=O)N3OS(=O)(=O)[O-])n1.O=C(O)C(F)(F)F.[Na+] (stereo not shown)
2. O=C1N2CC(n3ccc(-c4ncco4)n3)=CC(C2)N1OS(=O)(=O)[O-].[Na+] (stereo not shown)
3. O=C([O-])Cc1cn(C2=CC3CN(C2)C(=O)N3OS(=O)(=O)[O-])nn1.[Na+].[Na+] (stereo not shown)
4. NCCNC(=O)Cc1ccn(C2=CC3CN(C2)C(=O)N3OS(=O)(=O)[O-])n1.O=C(O)C(F)(F)F.[Na+] (stereo not shown)
5. CC(=O)Nc1cnn(C2=CC3CN(C2)C(=O)N3OS(=O)(=O)[O-])c1.[Na+] (stereo not shown)
6. CN(C)Cc1cn(C2=CC3CN(C2)C(=O)N3OS(=O)(=O)[O-])nn1.[Na+] (stereo not shown)
7. NCCONC(=O)c1cnn(C2=CC3CN(C2)C(=O)N3OS(=O)(=O)[O-])c1.O=C(O)C(F)(F)F.[Na+] (stereo not shown)

### Response
1. 2.20
2. 1.15
3. 1.30
4. 2.04
5. 2.36
6. 1.53
7. 1.08
